test: Lipophilicity, logD of the compound in 1-octanol and phosphate buffer at pH 7.4 incubated for 2 hrs under shaking condition by LC-MS/MS analysis; format: physicochemical; conditions: 1-octanol/phosphate buffer
measure-name: logD at 2 h
Could you keep your reply to the number by itself?

1. O=C(CCCc1cn(S(=O)(=O)c2cccs2)c2ccccc12)NCCCn1ccnc1; 2.7

Here is another compound to look at.
Query :: Fill in: logD at 2 h of O=C(CCCc1cn(S(=O)(=O)c2ccccc2)c2ccccc12)NCCCn1ccnc1 is ___
Result :: 2.7

----------
Molecular target: Insulin-degrading enzyme (Homo sapiens, UniProt P14735)
Sequence (P14735 whole entry): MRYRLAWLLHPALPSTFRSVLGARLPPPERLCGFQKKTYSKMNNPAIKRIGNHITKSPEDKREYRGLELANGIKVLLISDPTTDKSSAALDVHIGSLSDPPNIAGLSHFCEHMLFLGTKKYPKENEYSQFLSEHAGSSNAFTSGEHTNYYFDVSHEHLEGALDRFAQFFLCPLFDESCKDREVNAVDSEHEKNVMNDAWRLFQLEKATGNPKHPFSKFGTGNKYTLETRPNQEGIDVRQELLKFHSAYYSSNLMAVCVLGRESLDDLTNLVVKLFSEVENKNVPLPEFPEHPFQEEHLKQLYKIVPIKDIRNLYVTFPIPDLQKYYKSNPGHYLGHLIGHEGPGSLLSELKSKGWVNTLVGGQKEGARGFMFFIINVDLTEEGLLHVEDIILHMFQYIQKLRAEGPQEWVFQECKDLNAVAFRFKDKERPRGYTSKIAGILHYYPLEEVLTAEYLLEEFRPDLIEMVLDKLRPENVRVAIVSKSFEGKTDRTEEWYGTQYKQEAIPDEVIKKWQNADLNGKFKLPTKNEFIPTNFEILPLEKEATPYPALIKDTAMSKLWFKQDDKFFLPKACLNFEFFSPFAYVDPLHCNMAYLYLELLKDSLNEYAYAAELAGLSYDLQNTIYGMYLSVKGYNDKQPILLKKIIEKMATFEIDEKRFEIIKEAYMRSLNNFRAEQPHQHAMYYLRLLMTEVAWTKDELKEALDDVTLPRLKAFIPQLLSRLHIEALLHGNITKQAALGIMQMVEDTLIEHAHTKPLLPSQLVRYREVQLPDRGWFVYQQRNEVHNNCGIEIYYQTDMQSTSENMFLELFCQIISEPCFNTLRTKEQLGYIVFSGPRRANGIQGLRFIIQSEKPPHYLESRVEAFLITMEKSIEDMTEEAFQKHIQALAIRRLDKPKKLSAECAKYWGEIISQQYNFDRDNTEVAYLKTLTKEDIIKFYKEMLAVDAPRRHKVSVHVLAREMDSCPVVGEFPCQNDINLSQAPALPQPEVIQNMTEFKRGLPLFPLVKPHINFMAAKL
Assay: Activation of human recombinant IDE using ATTO 655-Cys-Lys-Leu-Val-Phe-Phe-Ala-Glu-Asp-trp as substrate incubated for 10 mins followed by substrate addition and measured after 20 mins by fluorescence spectrophotometer analysis
Listing of entries alongside the reported pEC50.
Kindly note that pEC50 refers to -log10 of the concentration in mol/L and answer with the value alone.

A selection of reference data follows.
1. CN(CCCn1ccnc1)C(=O)CCCc1cn(S(=O)(=O)c2ccccc2)c2ccccc12; 4.85
2. O=C(CCCc1nn(S(=O)(=O)c2ccccc2)c2ccccc12)NCCCn1ccnc1; 4.91

Query :: Fill in: pEC50 of O=C(CCc1cn(S(=O)(=O)c2ccccc2)c2ccccc12)NCCCn1ccnc1 is ___
Result :: 4.81

Query :: Fill in: pEC50 of CS(=O)(=O)n1cc(CCCC(=O)NCCCn2ccnc2)c2ccccc21 is ___
Result :: 4.57

Query :: Fill in: pEC50 of O=C(CCCc1cn(S(=O)(=O)c2ccsc2)c2ccccc12)NCCCn1ccnc1 is ___
Result :: 4.86

Query :: Fill in: pEC50 of O=C(CCCC1C(=O)Nc2ccccc21)NCCCn1ccnc1 (stereo not given) is ___
Result :: 4.41

Query :: Fill in: pEC50 of O=C(CCCc1cn(S(=O)(=O)c2cccc(F)c2)c2ccccc12)NCCCn1ccnc1 is ___
Result :: 4.99

----------
assay: Aqueous thermodynamic solubility of the compound in phosphate buffer/MeOH at pH 7.4 measured after 24 hrs by LC-MS/MS analysis; format: physicochemical; details: read-out: Therm_solubility
measure-name: solubility thermodynamic at 24 h
I'd appreciate it if you included the unit after the number.

Query :: Fill in: solubility thermodynamic at 24 h of O=C(CCCc1cn(S(=O)(=O)c2cccs2)c2ccccc12)NCCCn1ccnc1 is ___
Result :: 8.9 µM

----------
test: Dissociation constant, pKa of the compound; assay type: physicochemical
measure-name: pKa
Could you keep your reply to the number by itself?

A selection of reference data follows.
1) O=C(CCCc1cn(S(=O)(=O)c2ccccc2)c2ccccc12)NCCCn1ccnc1; 6.9
2) O=C(CCCc1cn(S(=O)(=O)c2ccccc2)c2ccccc12)NCCCc1c[nH]cn1; 7

Query :: Fill in: pKa of O=C(CCCc1cn(S(=O)(=O)c2ccccc2)c2ccccc12)NCCCN1CCCC1 is ___
Result :: 8.8

----------
molecular target: Insulin-degrading enzyme (Homo sapiens, UniProt P14735); assay: Activation of human recombinant IDE using ATTO 655-Cys-Lys-Leu-Val-Phe-Phe-Ala-Glu-Asp-trp as substrate incubated for 10 mins followed by substrate addition and measured after 20 mins by fluorescence spectrophotometer analysis
measure-name: EC50 (µM)
Supply the numeric figure in µM, leaving out any unit text.

A selection of reference data follows.
1) O=C(NCCCn1ccnc1)NCCc1cn(S(=O)(=O)c2ccccc2)c2ccccc12; 10.2
2) O=C(CCCc1cn(S(=O)(=O)c2cccnc2)c2ccccc12)NCCCn1ccnc1; 26.9

Here is another compound to look at.
Query :: Fill in: EC50 of Cn1cnc(S(=O)(=O)n2cc(CCCC(=O)NCCCn3ccnc3)c3ccccc32)c1 is ___
Result :: 28.8

----------
Target: Insulin-degrading enzyme (Homo sapiens)
Sequence (P14735 whole entry): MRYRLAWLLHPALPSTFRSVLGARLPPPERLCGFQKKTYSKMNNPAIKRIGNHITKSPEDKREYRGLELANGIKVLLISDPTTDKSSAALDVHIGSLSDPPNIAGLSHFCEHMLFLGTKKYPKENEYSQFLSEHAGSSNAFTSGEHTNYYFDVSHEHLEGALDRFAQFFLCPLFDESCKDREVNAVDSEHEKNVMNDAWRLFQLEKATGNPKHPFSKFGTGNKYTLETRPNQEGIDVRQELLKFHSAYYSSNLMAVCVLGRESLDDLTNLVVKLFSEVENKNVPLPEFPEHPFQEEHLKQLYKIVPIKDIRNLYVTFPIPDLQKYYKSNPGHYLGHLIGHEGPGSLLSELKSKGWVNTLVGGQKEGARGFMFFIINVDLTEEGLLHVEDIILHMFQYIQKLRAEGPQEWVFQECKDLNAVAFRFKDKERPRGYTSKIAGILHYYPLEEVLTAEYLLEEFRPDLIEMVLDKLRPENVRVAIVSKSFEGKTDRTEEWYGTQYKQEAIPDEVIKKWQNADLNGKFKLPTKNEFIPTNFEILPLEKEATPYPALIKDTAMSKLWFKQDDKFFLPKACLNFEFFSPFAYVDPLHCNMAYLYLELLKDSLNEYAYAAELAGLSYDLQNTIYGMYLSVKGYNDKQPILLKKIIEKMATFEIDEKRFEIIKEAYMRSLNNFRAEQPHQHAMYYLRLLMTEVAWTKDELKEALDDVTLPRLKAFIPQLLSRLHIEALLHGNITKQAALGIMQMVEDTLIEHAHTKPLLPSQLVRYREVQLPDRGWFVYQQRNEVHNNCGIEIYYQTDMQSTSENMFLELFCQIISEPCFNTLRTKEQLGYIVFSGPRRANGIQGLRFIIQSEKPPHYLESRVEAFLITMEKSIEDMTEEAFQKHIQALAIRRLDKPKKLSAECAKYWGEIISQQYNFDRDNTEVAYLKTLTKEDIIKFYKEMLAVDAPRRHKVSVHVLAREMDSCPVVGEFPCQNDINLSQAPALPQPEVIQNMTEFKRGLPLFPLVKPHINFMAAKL
Assay: Activation of human recombinant IDE using ATTO 655-Cys-Lys-Leu-Val-Phe-Phe-Ala-Glu-Asp-trp as substrate incubated for 10 mins followed by substrate addition and measured after 20 mins by fluorescence spectrophotometer analysis
Listing of entries alongside the reported EC50.
Supply the numeric figure in µM, leaving out any unit text.

A selection of reference data follows.
1) N[C@@H](Cc1cn(S(=O)(=O)c2ccccc2)c2ccccc12)C(=O)NCCCn1ccnc1; 14.5
2) O=C(CCCc1cn(C(=O)c2cccs2)c2ccccc12)NCCCn1ccnc1; 21.4

Here is another molecule to look at.
Query :: Fill in: EC50 of O=C(CCCc1cn(S(=O)(=O)c2ccccc2)c2ccccc12)NCCCn1ccnc1 is ___
Result :: 13.2
